Where these numbers come from: patent US20030199590A1

target: FP receptors (Swiss 3T3 cells expressing FP receptors) (Mus musculus, UniProt P43117); construct: endogenous in cells; host or cells: Swiss 3T3 cells; assay: FP receptor-mediated phosphoinositide turnover assay; assay type: cell-based; settings: Table 1; [3H]-IPs in Swiss 3T3 cells; read-out: FP functional EC50
Sequence (P43117 whole entry): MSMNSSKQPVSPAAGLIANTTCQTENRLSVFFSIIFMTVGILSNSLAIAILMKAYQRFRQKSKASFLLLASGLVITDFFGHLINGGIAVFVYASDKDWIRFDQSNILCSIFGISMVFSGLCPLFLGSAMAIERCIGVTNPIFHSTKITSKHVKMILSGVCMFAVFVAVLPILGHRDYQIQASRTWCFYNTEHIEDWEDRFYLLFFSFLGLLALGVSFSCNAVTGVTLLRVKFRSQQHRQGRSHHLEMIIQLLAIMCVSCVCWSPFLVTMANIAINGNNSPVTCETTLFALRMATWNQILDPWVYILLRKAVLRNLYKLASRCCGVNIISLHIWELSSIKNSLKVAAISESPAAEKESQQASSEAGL
pEC50: −log10 of the molar value.
measuredMetric: pEC50

| smilesStr | experimentalResult |
| --- | --- |
| O=C(O)CCC/C=C\C[C@@H]1[C@@H](/C=C/[C@@H](F)COc2cccc(C(F)(F)F)c2)[C@H](O)C[C@@H]1O | 7.95 |
| O=C(O)CCC/C=C\C[C@H]1[C@@H](O)CO[C@@H]1/C=C/[C@@H](O)CCc1ccccc1 | 7.10 |
| O=C(O)CCC/C=C\C[C@@H]1[C@@H](OC[C@@H](O)COc2ccccc2)[C@H](O)C[C@@H]1O | 7.25 |
